Test system: Jurkat cells
Test: Adaptation to G2 cell cycle arrest (G1 increment) in X-ray pre-arrested Jurkat cells, flow cytometry
Format: cell-based, human
Conditions: Homo sapiens, Jurkat, 24 h, Table 2; concentration causing half-maximal increase of % cells in G1 phase (G1 increment); Jurkat pre-arrested by 10 Gy X-ray, 24 hours with compound
MEASUREMENT TYPE: IC50 (nM)

Previously resolved entries follow.
Requested read-out: IC50. Entry: CC1=C(C)C(=O)N(Nc2ccc(Cl)c3ccccc23)C1=O [Compound S00738] 625

Requested read-out: IC50. Entry: COCC1=C(C)C(=O)N(N(C)c2ccc(C(F)(F)F)c(Cl)n2)C1=O [Compound S01600] 625

Requested read-out: IC50. Entry: COc1ccccc1C(=O)N1CCN(Cc2cc(NN3C(=O)C(C)=C(C)C3=O)nc3cc(Br)ccc23)CC1 [Compound S01879] 78

Requested read-out: IC50. Entry: CCC1=C(C)C(=O)N(Nc2ccc(C(F)(F)F)c(Cl)n2)C1=O [Compound S01553] 450

Requested read-out: IC50. Entry: CC1=C(C)C(=O)N(Nc2ccc(C(F)(F)F)c(C#N)n2)C1=O [Compound S01475] 500

I. CC1=C(C)C(=O)N(Nc2cc(CN3CCN(C(=O)OCc4ccccc4)CC3)c3ccc(Br)cc3n2)C1=O [Compound S01683]
II. COC(=O)CCC1=C(C)C(=O)N(Nc2cc(CN3CCN(C(=O)OC(C)(C)C)CC3)c3ccc(Br)cc3n2)C1=O [Compound S01865]
Sorting by IC50 in descending order, would I or II appear first? Could you answer with the label of the item you picked? I
(I: 625 nM, II: 312 nM)

* * *

Test system: Jurkat cells
Assay: Adaptation to G2 cell cycle arrest (G1 increment) in X-ray pre-arrested Jurkat cells, flow cytometry
Format: cell-based, human
Settings: Homo sapiens, Jurkat, 24 h, Table 1; concentration causing half-maximal increase of % cells in G1 phase (G1 increment); Jurkat pre-arrested by 10 Gy X-ray, 24 hours with compound
MEASUREMENT TYPE: IC50 (µM)

Previously resolved entries follow.
# query: IC50 | item CC1=C(C)C(=O)N(N(C)c2cc(Cl)cc(Cl)c2)C1=O [Compound S00587] | system: Jurkat cells 2.5

# query: IC50 | item CC1=C(C)C(=O)N(C(C)c2ccc(Br)cc2)C1=O (centres unmarked) [Compound S00543] | system: Jurkat cells 60

# query: IC50 | item CC1=C(C)C(=O)N(Nc2ccc(Cl)c3ccccc23)C1=O [Compound S00738] | system: Jurkat cells 0.63

# query: IC50 | item CC1=C(C)C(=O)N(Nc2cc(C(F)(F)F)ccc2C)C1=O [Compound S00512] | system: Jurkat cells 5

# query: IC50 | item O=C1C2=C(CCCC2)C(=O)N1Nc1ccc(C(F)(F)F)c(Cl)n1 [Compound S00186] | system: Jurkat cells 0.63

a. CC1=C(C)C(=O)N(Cc2ccc(C(F)(F)F)c(Cl)c2)C1=O [Compound S00513]
b. CC1=C(C)C(=O)N(Nc2cc(Cl)ccc2C)C1=O [Compound S00319]
c. O=C1C(Cl)=C(Cl)C(=O)N1Nc1cccc(C(F)(F)F)c1 [Compound S00406]
d. O=C1C(Cl)=C(Cl)C(=O)N1Cc1ccc(C(F)(F)F)cc1 [Compound S00409]
e. CC1=C(C)C(=O)N(Nc2ccc(C(C)(C)C)cc2)C1=O [Compound S00479]
List items by IC50 in falling order. Provide the labels, sequenced as the question asks. c, d, b, a, e
(c: 80 µM, d: 20 µM, b: 10 µM, a: 5 µM, e: 2.5 µM)
